- Test system: EV-D68 strain USA-IL/18956
- experimental-protocol: CPE inhibition assay repeated in HeLa H1 cells
- Assay type: cell-based, Human enterovirus D68
- test-parameters: Enterovirus D, EVD68
measurement-name: pEC50
On this scale, pEC50 is minus log10 of a concentration expressed in M (mol/L).

Request: Could you share which pEC50 value was measured for Cc1cc(CCCOc2c(C)cc(-c3noc(C(F)(F)F)n3)cc2C)on1 [Pleconaril, pleconaril] ?
Response: 6.49

---

- System: EV-D68 strain USA-IL/18956
- experimental-protocol: CPE inhibition assay in RD cells
- Assay type: cell-based, Human enterovirus D68
- test-parameters: Enterovirus D, EVD68, 120 h; RD cells, 100 CCID50 virus, 33° C., five days, strain USA-IL/18956; read-out: Mean EC50 ± SD
pEC50: −log10 of the molar value.
Consider the following compounds and their measured pEC50 readings.

Would you please look over these solved cases?
[
  {
    "compound": "CC(=O)Oc1ccccc1C(=O)Nc1ncc([N+](=O)[O-])s1 [Nitazoxanide, nitazoxanide]",
    "system-tested": "EV-D68 strain USA-IL/18956",
    "pEC50": "< 5.00"
  },
  {
    "compound": "CCC(C)n1ncn(-c2ccc(N3CCN(c4ccc(OCC5COC(Cn6cncn6)(c6ccc(Cl)cc6Cl)O5)cc4)CC3)cc2)c1=O (stereo not drawn)",
    "system-tested": "EV-D68 strain USA-IL/18956",
    "pEC50": "< 5.00"
  }
]

Request: For the compound Cc1cc(CCCOc2c(C)cc(-c3noc(C(F)(F)F)n3)cc2C)on1 , what pEC50 is on record?
Response: 5.21

Request: Then NC(=O)c1nc(F)c[nH]c1=O ?
Response: < 5.00

Request: What about this compound? OC(c1cc(C(F)(F)F)nc2c(C(F)(F)F)cccc12)C1CCCCN1 (stereo not drawn)
Response: < 5.00

Request: Continue with C#CC[C@@H](C(=O)N[C@H](/C=C/C(=O)OCC)C[C@@H]1CCNC1=O)n1cccc(NC(=O)c2cc(C)on2)c1=O
Response: 7.62
